target.entity: T1, FL9 self-peptide (source protein not named) peptide on Qa-1b (mouse)
T1 peptide: FYAEATPML
assay.name: multimer staining

{"binder": "FL9.40 (TCR, V domains shown) Valpha: AQSVTQPDARVTVSEGASLQLRCKYSYFGTPYLFWYVQYPRQGLQLLLKYYPGDPVVQGVNGFEAEFSKSNSSFHLRKASVHWSDWAVYFCAVTRYGSSGNKLIFGIGTLLSVKP Vbeta: DSGVVQSPRHIIKEKGGRSVLTCIPISGHSNVVWYQQTLGKELKFLIQHYEKVERDKGFLPSRFSVQQFDDYHSEMNMSALELEDSAMYFCASSPRLGSAETLYFGSGTRLTVL", "binding result": "recognises"}
{"binder": "FL9.41 (TCR, V domains shown) Valpha: AQSVTQPDARVTVSEGASLQLRCKYSYFGTPYLFWYVQYPRQGLQLLLKYYPGDPVVQGVNGFEAEFSKSNSSFHLRKASVHWSDWAVYFCAVSIWATSSGQKLVFGQGTILKVYL Vbeta: VTLLEQNPRWRLVPRGQAVNLRCILKNSQYPWMSWYQQDLQKQLQWLFTLRSPGDKEVKSLPGADYLATRVTDTELRLQVANMSQGRTLYCTCSARQGSGNTLYFGEGSRLIVV", "binding result": "recognises"}
